Molecular target: Amine oxidase [flavin-containing] B (Rattus norvegicus, UniProt P19643)
Sequence (P19643 whole entry): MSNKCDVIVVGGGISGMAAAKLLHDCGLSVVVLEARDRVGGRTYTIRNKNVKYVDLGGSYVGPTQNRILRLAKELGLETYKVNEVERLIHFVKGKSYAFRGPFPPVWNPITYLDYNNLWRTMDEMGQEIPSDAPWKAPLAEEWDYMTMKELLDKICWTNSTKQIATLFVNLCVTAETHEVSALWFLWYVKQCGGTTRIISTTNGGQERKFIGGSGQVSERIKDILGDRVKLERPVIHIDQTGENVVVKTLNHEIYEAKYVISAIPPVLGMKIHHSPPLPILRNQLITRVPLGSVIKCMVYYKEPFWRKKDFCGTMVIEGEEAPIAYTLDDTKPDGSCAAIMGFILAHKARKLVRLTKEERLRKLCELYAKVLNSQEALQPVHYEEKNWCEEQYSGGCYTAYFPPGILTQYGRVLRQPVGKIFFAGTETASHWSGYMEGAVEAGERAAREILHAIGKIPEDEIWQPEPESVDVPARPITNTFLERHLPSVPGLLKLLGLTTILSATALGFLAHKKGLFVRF
Catalogue of molecules with associated IC50
Endpoint: IC50 (nM)

[[record]]
compound_structure_string = "O=c1cc(CCCl)c2ccc(OCc3cccc(Cl)c3)cc2o1"
experimental_system = "Amine oxidase [flavin-containing] B (Rattus norvegicus, UniProt P19643)"
endpoint = "IC50"
readout_unit = "nM"
reported = 12.9

[[record]]
compound_structure_string = "O=C(O)COc1cc(=O)oc2cc(OCc3cccc(Cl)c3)ccc12"
experimental_system = "Amine oxidase [flavin-containing] B (Rattus norvegicus, UniProt P19643)"
endpoint = "IC50"
readout_unit = "nM"
reported = 31600

[[record]]
compound_structure_string = "O=c1cc(CCBr)c2ccc(OCc3cccc(Cl)c3)cc2o1"
experimental_system = "Amine oxidase [flavin-containing] B (Rattus norvegicus, UniProt P19643)"
endpoint = "IC50"
readout_unit = "nM"
reported = 32.4

[[record]]
compound_structure_string = "CCNC(=O)Nc1cc(=O)oc2cc(OCc3cccc(Cl)c3)ccc12"
experimental_system = "Amine oxidase [flavin-containing] B (Rattus norvegicus, UniProt P19643)"
endpoint = "IC50"
readout_unit = "nM"
reported = 31600

[[record]]
compound_structure_string = "O=C(O)CCc1cc(=O)oc2cc(OCc3cccc(Cl)c3)ccc12"
experimental_system = "Amine oxidase [flavin-containing] B (Rattus norvegicus, UniProt P19643)"
endpoint = "IC50"
readout_unit = "nM"
reported = 1200

[[record]]
compound_structure_string = "NC(=O)CNc1cc(=O)oc2cc(OCc3cccc(Cl)c3)ccc12"
experimental_system = "Amine oxidase [flavin-containing] B (Rattus norvegicus, UniProt P19643)"
endpoint = "IC50"
readout_unit = "nM"
reported = 49


----------
// inhibition at 10 µM lookup, one value per entry
molecular target: MAO-A (amine oxidase [flavin-containing] A) (Rattus norvegicus, UniProt P21396); assay: Inhibition of Sprague-Dawley rat MAO-A in brain mitochondrial homogenate assessed as 4-hydroxyquinoline at 10 uM by spectrophotometric method; format: tissue-based
Sequence (P21396 whole entry): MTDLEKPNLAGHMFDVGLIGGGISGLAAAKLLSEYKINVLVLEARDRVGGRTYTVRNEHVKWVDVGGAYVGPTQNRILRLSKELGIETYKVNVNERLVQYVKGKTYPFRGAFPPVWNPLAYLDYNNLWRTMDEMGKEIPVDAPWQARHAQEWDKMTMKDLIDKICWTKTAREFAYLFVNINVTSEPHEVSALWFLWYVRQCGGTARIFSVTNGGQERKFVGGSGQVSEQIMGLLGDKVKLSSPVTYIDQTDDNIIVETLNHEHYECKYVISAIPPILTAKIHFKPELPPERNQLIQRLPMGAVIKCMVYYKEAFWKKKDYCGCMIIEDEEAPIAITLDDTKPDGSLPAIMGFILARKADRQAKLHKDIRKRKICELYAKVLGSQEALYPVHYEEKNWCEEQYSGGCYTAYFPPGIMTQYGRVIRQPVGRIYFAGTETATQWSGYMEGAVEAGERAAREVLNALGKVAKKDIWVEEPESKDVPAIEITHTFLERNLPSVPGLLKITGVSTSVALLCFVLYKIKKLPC
Endpoint: inhibition at 10 µM

[[record]]
compound_structure_string = "O=c1cc(CCCl)c2ccc(OCc3cccc(Cl)c3)cc2o1"
endpoint = "inhibition at 10 µM"
reported = "3%"

[[record]]
compound_structure_string = "O=c1cc(CCN2CCCCC2)c2ccc(OCc3cccc(Cl)c3)cc2o1"
endpoint = "inhibition at 10 µM"
reported = "1%"

[[record]]
compound_structure_string = "O=c1cc(CCBr)c2ccc(OCc3cccc(Cl)c3)cc2o1"
endpoint = "inhibition at 10 µM"
reported = "22%"

[[record]]
compound_structure_string = "N#CCCc1cc(=O)oc2cc(OCc3cccc(Cl)c3)ccc12"
endpoint = "inhibition at 10 µM"
reported = "22%"

[[record]]
compound_structure_string = "O=C(O)CCc1cc(=O)oc2cc(OCc3cccc(Cl)c3)ccc12"
endpoint = "inhibition at 10 µM"
reported = "13%"

